Values were extracted from the Immune Epitope Database (IEDB).

target: HLA-A*02:01; assay: IEDB peptide-MHC binding, cellular MHC/competitive/fluorescence; bounds were set here for any values at or beyond the usual limits of such assays; details: source organism: Hepacivirus hominis
MEASURED_METRIC: pIC50
By convention, pIC50 is the negative base-10 log of a molar concentration.

Request - read-out pIC50 | tested on HLA-A*02:01 | sequence LLGLLLLCV
5.13

---

target: HLA-A*68:02; assay: IEDB peptide-MHC binding, purified MHC/competitive/radioactivity; bounds were set here for any values at or beyond the usual limits of such assays; conditions: source organism: Vaccinia virus WR
Labelling: IC50 reported below 300 nM becomes true (1); at or above becomes false (0).

Examples from the recorded data:
>  <SEQUENCE_TEXT>
TLNTLITLIL

>  <CAT>
false (0)

$$$$
>  <SEQUENCE_TEXT>
STIANSNII

>  <CAT>
true (1)

$$$$
>  <SEQUENCE_TEXT>
EMVEYLENQL

>  <CAT>
false (0)

$$$$

Criterion: IC50 strictly below 300 nM. Is it met by VIIMAINVFT ?
false (0)

Queued: TVGMSIVCIV
true (1)

Queued: NTGMGMYYPT
false (0)

---

biological target: HLA-A*68:02; assay: IEDB peptide-MHC binding, purified MHC/competitive/radioactivity; bounds were set here for any values at or beyond the usual limits of such assays; conditions: source organism: Influenza A virus
pIC50: −log10 of the molar value.
Given measured pIC50, output Yes if it is greater than or equal to 6 and No if not.

Examples from the recorded data:
>  <SEQUENCE_TEXT>
CLINDPWVL

>  <CAT>
No

$$$$
>  <SEQUENCE_TEXT>
FNPMIVELA

>  <CAT>
No

$$$$
>  <SEQUENCE_TEXT>
RTEIIRMMESA

>  <CAT>
No

$$$$
>  <SEQUENCE_TEXT>
RTFFLTQGA

>  <CAT>
Yes

$$$$

Is reported pIC50 greater than or equal to 6 here: VNNAVVMPA
No

Queued: FQVDCFLWH
No

Queued: TSFFYRYGFV
Yes

Queued: MLLRSAIGQV
No

Queued: CVNGSCFTV
No

Queued: FVFTLTVPS
Yes

---

target: HLA-A*68:02; assay: IEDB peptide-MHC binding, cellular MHC/competitive/fluorescence; bounds were set here for any values at or beyond the usual limits of such assays; conditions: source organism: Vaccinia virus WR
Labelling: IC50 reported below 20 µM becomes true (1); at or above becomes false (0).

>  <SEQUENCE_TEXT>
SVGTGILFM

>  <TESTED_ON>
HLA-A*68:02

>  <CAT>
false (0)

$$$$

Criterion: IC50 strictly below 20 µM. Is it met by GTGILFMEM ?
false (0)

Queued: VVKDKIKLPT
false (0)

Queued: VMDKNHAIFT
true (1)

Queued: IISTDQDTML
false (0)

Queued: HLENDKIEDL
false (0)

Queued: MMQNDYGGM
false (0)

Queued: RLYNSLKRFT
true (1)

Queued: RILSEKRKDT
true (1)

Queued: VAKCCSKTNT
false (0)

---

Listing: IC50 of selected sequences
target: HLA-A*02:01; test: IEDB peptide-MHC binding, cellular MHC/competitive/fluorescence; bounds were set here for any values at or beyond the usual limits of such assays; details: source organism: Vaccinia virus WR
Just the number please, in µM, no unit attached.

>  <SEQUENCE_TEXT>
LIKLIEPVNA

>  <IC50 / µM>
55.6

$$$$
>  <SEQUENCE_TEXT>
DIEPDLENNL

>  <IC50 / µM>
54.4

$$$$
>  <SEQUENCE_TEXT>
DILANRDSTL

>  <IC50 / µM>
34.5

$$$$

What measured IC50 goes with SVDCNKELM ?
11.2

Queued: VIGASYISCT
17.8

Queued: YVESKLVDI
25.3

Queued: SLVSYIKTT
5.37

Queued: DVNSVQFSI
11.5

Queued: IIIVALTIM
9.64
